# PROCEDURE SUMMARY: chemical genetic growth profiling, strain panel (AID 1159580);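 also: tested at 20 µM; growth read once vehicle control cultures reached saturation at 30 °C; 1 = growth at the plate median or of vehicle wells; lower values mean less growth of the strain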
# COND: S. cerevisiae deletion strains, growth OD, locus YJL134W, strain LCB3
Screen size: about 5,500 compounds; about 2,000 (36%) were called active. Inconclusive results (about 18%) are left out. Rule as the data show it: active = normalized growth mostly below about 0.91 (no sharp cut-off); inconclusive = no clear call, values can overlap the other calls; inactive = mostly above about 0.92. This is one part of the list.
Select the matching outcome among active, inactive

- MOLECULE: "CC(=O)O[C@H]1C[C@H](O[C@H]2[C@@H](O)C[C@H](O[C@H]3[C@@H](O)C[C@H](O[C@H]4CC[C@@]5(C)C(CCC6C5C[C@@H](O)[C@]5(C)[C@@H](C7=CC(=O)OC7)CC[C@]65O)C4)O[C@@H]3C)O[C@@H]2C)O[C@H](C)[C@H]1O[C@@H]1O[C@H](CO)[C@@H](O)[C@H](O)[C@H]1O (some centres undefined)"
  CATEGORY LABEL: "inactive"
- MOLECULE: "C[C@@H]1CC[C@@]2(OC1)OC1C(O)C3C4CC[C@H]5C[C@H](O[C@@H]6O[C@H](CO)[C@H](O[C@@H]7O[C@H](CO)[C@@H](O)[C@H](O[C@@H]8OC[C@@H](O)[C@H](O)[C@H]8O)[C@H]7O[C@@H]7O[C@H](CO)[C@H](O)[C@H](O[C@@H]8O[C@H](CO)[C@@H](O)[C@H](O)[C@H]8O)[C@H]7O)[C@H](O)[C@H]6O)[C@H](O)C[C@]5(C)C4CC[C@]3(C)C1[C@@H]2C (some centres undefined)"
  CATEGORY LABEL: "active"
- MOLECULE: "COc1cc([C@@H]2c3cc4c(cc3C(O[C@@H]3O[C@@H]5CO[C@@H](c6cccs6)OC5[C@H](O)[C@H]3O)C3COC(=O)[C@@H]32)OCO4)cc(OC)c1O (some centres undefined)"
  CATEGORY LABEL: "inactive"

Per the assay record, what outcome was assigned to CC1NC(=O)NC1=O (centres undefined) ?
inactive

* * *

# PROCEDURE SUMMARY: chemical genetic growth profiling, strain panel (AID 1159580)
# COND: S. cerevisiae deletion strains, growth OD, locus YOR144C, strain elg1, active compounds read low
Out of some 5,500 compounds screened, about 2,000 (36%) were called active. About 18% were inconclusive and are not listed. This is one part of the list.
normalized growth values by entry
Returns: the value as a bare number; no unit string appended.

- COMPOUND: "C#CCOS(=O)OC1CCCCC1Oc1ccc(C(C)(C)C)cc1 (centres undefined)"
  normalized growth: 0.996

Returns the measured normalized growth for the input compound. Input: "COc1c(O)cccc1O"
1.01

Returns the measured normalized growth for the input compound. Input: CC1(C)O[C@@H]2CC3C4C[C@H](F)C5=CC(=O)C=CC5(C)C4C(O)CC3(C)[C@]2(C(=O)CO)O1 (some centres undefined)
0.984

Returns the measured normalized growth for the input compound. Input: "CCCCC1C(=O)N(c2ccccc2)N(c2ccccc2)C1=O"
0.985

Returns the measured normalized growth for the input compound. Input: "CC(=O)N(O)CCCCCNC(=O)CCC(=O)N(O)CCCCCNC(=O)CCC(=O)N(O)CCCCCN"
1.02

Returns the measured normalized growth for the input compound. Input: CCOC(=O)C1C(C=C(C)C)C1(C)C (centres undefined)
1.01

Returns the measured normalized growth for the input compound. Input: "C[N+]1(CCCCC[N+]2(C)CCCC2)CCCC1"
1.02

Returns the measured normalized growth for the input compound. Input: C=CCCCCCCCCCCCC(O)CC(O)CO (centres undefined)
0.982

Returns the measured normalized growth for the input compound. Input: CC1(C)O[C@@H]2CC3C4CCC5=CC(=O)C=C[C@]5(C)[C@@]4(F)[C@@H](O)C[C@]3(C)[C@]2(C(=O)CO)O1 (some centres undefined)
1.01

* * *

# PROCEDURE SUMMARY: chemical genetic growth profiling, strain panel (AID 1159580);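 also: tested at 20 µM; growth read once vehicle control cultures reached saturation at 30 °C; 1 = growth at the plate median or of vehicle wells; lower values mean less growth of the strain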
# COND: S. cerevisiae deletion strains, growth OD, locus YHR094C, strain hxt1, active compounds read low
Screen size: about 5,500 compounds; about 2,000 (36%) were called active. Inconclusive results (about 18%) are left out. The list shows a part of the results.
EXPERIMENTAL READOUT: normalized growth

Illustrative cases are given below, each with its answer.
- COMPOUND: "COc1c(O)cc2c(-c3ccccc3)cc(=O)oc2c1OC"
  REPORTED RESULT: "0.983 (inactive)"
- COMPOUND: "CC(=O)[C@H]1CCC2C3CC=C4C[C@@H](O)CC[C@]4(C)C3CC[C@@]21C (stereo not given in full)"
  REPORTED RESULT: "1.03 (inactive)"
- COMPOUND: "CC(=O)N(O)CCCCCNC(=O)CCC(=O)N(O)CCCCCNC(=O)CCC(=O)N(O)CCCCCN"
  REPORTED RESULT: "1.02 (inactive)"
- COMPOUND: "COc1cc([C@@H]2c3cc4c(cc3[C@H](OC(C)=O)[C@H]3COC(=O)[C@H]23)OCO4)cc(OC)c1OC"
  REPORTED RESULT: "0.973 (inactive)"
- COMPOUND: "CCC(CCC(C)[C@H]1CCC2C3CC=C4C[C@@H](O)CC[C@]4(C)C3CC[C@@]21C)C(C)C (stereo not given in full)"
  REPORTED RESULT: "0.984 (inactive)"
- COMPOUND: "COc1ccc(C(=O)/C=C/c2ccccc2)cc1"
  REPORTED RESULT: "0.941 (inactive)"
- COMPOUND: "COc1cccc(-c2cc(=O)c3ccc(OC)cc3o2)c1"
  REPORTED RESULT: "1.15 [resistant] (active)"
- COMPOUND: "COc1ccc2c(=O)cc(-c3ccccc3OC)oc2c1"
  REPORTED RESULT: "0.961 (inactive)"

Returns the measured normalized growth for the input compound. Input: Cn1nnnc1SCC1=C(C(=O)O)N2C(=O)C(NC(=O)C(O)c3ccccc3)C2SC1 (stereo not given)
1 (inactive)

Returns the measured normalized growth for the input compound. Input: "NCC(=O)CCC(=O)O"
0.99 (inactive)

* * *

# PROCEDURE SUMMARY: chemical genetic growth profiling, strain panel (AID 1159580);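 also: tested at 20 µM; growth read once vehicle control cultures reached saturation at 30 °C; 1 = growth at the plate median or of vehicle wells; lower values mean less growth of the strain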
# COND: S. cerevisiae deletion strains, growth OD, locus YGL173C, strain kem1
Among all 5,500 compounds or so, about 2,000 (36%) were called active. Roughly 18% stayed inconclusive and do not appear here. No stated cut-off is given here; in the data, active means normalized growth mostly below about 0.91 (no sharp cut-off); inconclusive means no clear call, values can overlap the other calls; inactive means mostly above about 0.92. The list shows a part of the results.
Select the matching outcome among active, inactive

- MOLECULE: "CC(C(=O)O)[C@H]1CCC2C3CC=C4C[C@@H](O)CC[C@]4(C)C3CC[C@@]21C (some centres not stated)"
  CATEGORY LABEL: "inactive"
- MOLECULE: "COc1cc2c3cc1Oc1cc(ccc1O)C[C@@H]1c4c(cc(OC)c(O)c4Oc4ccc(cc4)C[C@@H]3N(C)CC2)CC[N+]1(C)C"
  CATEGORY LABEL: "inactive"
- MOLECULE: "CC(C)=CCc1c2c(c(O)c3c(=O)c(O)c(-c4ccccc4)oc13)C=CC(C)(C)O2"
  CATEGORY LABEL: "active"
- MOLECULE: "CC(=O)Oc1c(-c2ccccc2)oc2c(CC=C(C)C)c3c(c(OC(C)=O)c2c1=O)C=CC(C)(C)O3"
  CATEGORY LABEL: "inactive"
- MOLECULE: "CCC(/C=C/[C@@H](C)[C@H]1CCC2C3CC=C4C[C@@H](O)CC[C@]4(C)C3CC[C@@]21C)C(C)C (some centres not stated)"
  CATEGORY LABEL: "inactive"

Per the assay record, what outcome was assigned to CC(=O)OCC(=O)[C@H]1CCC2C3CC=C4C[C@@H](O)CC[C@]4(C)C3CC[C@@]21C (some centres not stated) ?
inactive

Per the assay record, what outcome was assigned to CC(=O)OCC(=O)[C@@]1(O)CCC2C3CC[C@@H]4C[C@H](O)CC[C@]4(C)C3C(=O)C[C@@]21C (some centres not stated) ?
inactive

* * *

# PROCEDURE SUMMARY: chemical genetic growth profiling, strain panel (AID 1159580);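 also: tested at 20 µM; growth read once vehicle control cultures reached saturation at 30 °C; 1 = growth at the plate median or of vehicle wells; lower values mean less growth of the strain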
# COND: S. cerevisiae deletion strains, growth OD, locus YDL074C, strain BRE1, active compounds read low
About 2,000 (36%) of roughly 5,500 compounds were called active. Roughly 18% stayed inconclusive and do not appear here. The list shows a part of the results.
normalized growth values by entry
Returns: the value as a bare number; no unit string appended.

Illustrative cases are given below, each with its answer.
- COMPOUND: "CN(C)CCC=C1c2ccccc2C=Cc2ccccc21"
  normalized growth: 0.956
- COMPOUND: "CC(=O)O[C@@H]1CC2C(C)(C)[C@H](O)C[C@H](O)[C@]2(C)C2CC[C@@]3(C)[C@H](c4ccoc4)OC(=O)[C@H]4O[C@]43[C@@]21C (stereo not given in full)"
  normalized growth: 0.987
- COMPOUND: "CC1(C)O[C@@H]2CC3C4C[C@H](F)C5=CC(=O)C=C[C@]5(C)[C@@]4(F)[C@@H](O)C[C@]3(C)[C@]2(C(=O)CO)O1 (stereo not given in full)"
  normalized growth: 1
- COMPOUND: "O=C1CCc2cc(OCCCCc3nnnn3C3CCCCC3)ccc2N1"
  normalized growth: 1.03
- COMPOUND: "NCC(=O)CCC(=O)O"
  normalized growth: 1.02
- COMPOUND: "CCn1cc(C(=O)O)c(=O)c2cc(F)c(N3CCNCC3)cc21"
  normalized growth: 1.02

Returns the measured normalized growth for the input compound. Input: CC(=O)O[C@@H]1CC2C(C)(C)CCC(=O)[C@]2(C)C2CC[C@@]3(C)[C@H](c4ccoc4)OC(=O)C4OC43[C@@]21C (stereo not given in full)
0.994

Returns the measured normalized growth for the input compound. Input: "O=c1c2ccccc2[se]n1-c1ccccc1"
0.0969

Returns the measured normalized growth for the input compound. Input: "CCCCCCCCCCCCCCCC[n+]1ccccc1"
0.0827

Returns the measured normalized growth for the input compound. Input: "O=C(O)/C=C(\CC(=O)O)C(=O)O"
0.998
